Taken from PubChem BioAssay (Tox21).

- Test system: thyroid hormone receptor (rat, GH3 cells)
- TEST DESCRIPTION: qHTS assay to identify small molecule agonists of the thyroid receptor (TR) signaling pathway (AID 743066)
- EXPERIMENTAL CONDITIONS: GH3.TRE-Luc cells, TR agonist luciferase, 24 h; series mostly up to 83.9 µM
Results filed as inconclusive are left out. Active and inactive are the calls of the source. The call rests on the fitted dose curve.
Choose one outcome from this list and give only that: active, inactive

Worked examples, 2 compounds total:
COc1cc2c(cc1OC)C(C(C(=O)N(CCc1ccc(OC)c(OC)c1OC)CCc1ccc(OC)c(OC)c1OC)c1ccccc1)=NCC2 (centres undefined) ... inactive
CC(C)OC(=O)C(C)N(C(=O)c1ccccc1)c1ccc(F)c(Cl)c1 (centres undefined) ... inactive

Prompt: Assay outcome for CCC(Cl)CCC(Cl)C(Cl)CC(Cl)C(Cl)C(Cl)CCl (centres undefined) : what was it?
Response: inactive

Prompt: Assay outcome for `NCC(=O)CCC(=O)O` : what was it?
Response: active
